Reported MFI is given for each of the following binders.
Measured on: T1, cynomolgus monkey GPRC5D (cynomolgus monkey)
T1 construct: whole, on cells; HEK293T-cynoGPRC5D cells; also called cynoGPRC5D
Experiment: FACS, HEK293T-cynoGPRC5D cells; also: test concentration or dose not given here
When you answer, write just the number.

These recorded examples may help you get a feel for the data.
26E2H6 (antibody, V domains shown, Mouse monoclonal antibody from hybridoma subclone) VH: EVQLVESGGDLVKPGGSLKLSCAASGFTFSSYGMSWVRQTPDKRLEWVATISSGGSYTYYPDSVKGRFTISRDNAKNTLYLQMSSLKSEDTAMYYCARHATDYWGQGTTLTVSS VL: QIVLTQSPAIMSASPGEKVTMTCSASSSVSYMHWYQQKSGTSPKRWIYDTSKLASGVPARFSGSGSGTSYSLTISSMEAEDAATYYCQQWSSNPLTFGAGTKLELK ... 116
ATG596 (antibody, V domains shown, Human IgG1; also called benchmark antibody ATG596; positive human IgG1 control antibody) VH: QVQLVQSGAEVKKPGASVKVSCKASGYSFTGYTMNWVRQAPGQGLEWMGLINPYNSDTNYAQKLQGRVTMTTDTSTSTAYMELRSLRSDDTAVYYCARVALRVALDYWGQGTLVTVSS VL: DIQMTQSPSSLSASVGDRVTITCKASQNVATHVGWYQQKPGKAPKRLIYSASYRYSGVPSRFSGSGSGTEFTLTISNLQPEDFATYYCQQYNRYPYTFGQGTKLEIK ... 7400

Now for the binder whose MFI we want.
// recorded MFI for 28H9C12 (antibody, V domains shown, Mouse monoclonal antibody from hybridoma subclone; also called 281H9C12) VH: EVQLVESGGGLVKPGGSLKLSCAASGFTFSDYGMHWVRQAPEKGLEWVAYISSGSSTIYYADTVKGRFTISRDNAKNTLFLQMTSLRSEDTAIYYCVRRPWYFDVWGTGTTVTVSS VL: DVLMTQTPLSLPVSLGDQASISCRSSQSIVHSNGNTYLQWYLQKPGQSPKLLIYKVSNRFSGVPDRFSGSGSGTDFTLKISRLEAEDLGVYYCFQGSHVPFTFGSGTKLEIK : 18000
